// provenance: ChEMBL document CHEMBL3039007

SYSTEM: Solute carrier organic anion transporter family member 1B3 (Homo sapiens)
EXPERIMENTAL_CONDITIONS: chinese hamster, cho, 10 µM
For each of the compounds below, state its residual activity.
Give bare numbers, in %.

- COMPOUND: "Oc1cc(O)c2c(c1)O[C@H](c1ccc(O)c(O)c1)[C@H](O)C2 [(-)-EPICATECHIN]"
  VALUE_REPORTED: 77.92
- COMPOUND: "COc1ccc2c(c1)OC[C@@H](Cc1ccc(OC)c(OC)c1)[C@@H]2O [3-DESHYDROXYSAPPANOL TRIMETHYL ETHER]"
  VALUE_REPORTED: 104.1
- COMPOUND: "CC(=O)c1c(O)cc(O)cc1O [2,4,6-TRIHYDROXYACETOPHENONE]"
  VALUE_REPORTED: 92.98
- COMPOUND: "COC[C@]12CN(C=O)C3[C@@H]4[C@H](OC)[C@H]1[C@@]3([C@@H](OC)C[C@H]2O)[C@@H]1C[C@@]2(O)[C@H](OC(=O)c3ccccc3)[C@@H]1[C@]4(OC(C)=O)[C@@H](O)[C@@H]2OC"
  VALUE_REPORTED: 73.94
- COMPOUND: "CN(C)CCC[C@@]1(c2ccc(F)cc2)OCc2cc(C#N)ccc21.O=C(O)C(=O)O [ESCITALOPRAM OXALATE]"
  VALUE_REPORTED: 117.8

Take each entry in turn and give its residual activity.
1. O=C1CN(/N=C/c2ccc(-c3ccc([N+](=O)[O-])cc3)o2)C(=O)[N-]1.[Na+] [DANTROLENE SODIUM]
2. CS(=O)(=O)O.OC(CCN1CCCCC1)(c1ccccc1)c1ccccc1 [PRIDINOL METHANESULFONATE]
3. COC(=O)[C@@H]1OC(=O)[C@H]2O[C@]23[C@]2(C)[C@H](O)C[C@H]4C(C)(C)[C@H](OC(C)=O)C[C@H](OC(C)=O)[C@]4(C)[C@H]2CC[C@@]13C
4. COC(=O)c1cc(OC)c(=O)c2c(OC)c(OC)ccc2c1
5. CN1CCN(C(c2ccccc2)c2ccccc2)CC1
6. Oc1ccc(O)cc1 [HYDROQUINONE]
7. CN1[C@@H]2CC[C@H]1C[C@@H](OC(c1ccccc1)c1ccccc1N)C2 (stereo partly specified)

**A:**
114.3
95.39
83.24
100.1
103
93.82
77.23

Take each entry in turn and give its residual activity.
1. CN1CCN(CC/C=C2/c3ccccc3Sc3ccc(S(=O)(=O)N(C)C)cc32)CC1
2. CC(=O)OC1CCC23CC1(C)CCC2C(C)(C)CC3OC(C)=O (stereo unspecified) [CLOVANEDIOL DIACETATE]
3. Cl.N=C(N)NC(=N)Nc1ccccc1 [1-PHENYLBIGUANIDE HYDROCHLORIDE]
4. O=c1oc2ccccc2c(O)c1Cc1c(O)c2ccccc2oc1=O

**A:**
115.8
85.3
94.41
19.32

* * *

SYSTEM: UniProt Q9NPD5
EXPERIMENTAL_CONDITIONS: chinese hamster, cho, 10 µM
READOUT_KIND: residual activity (%)
Give bare numbers, in %.

Answered cases to consult:
- COMPOUND: "C=CC(C1=CC(=O)C(OC)=CC1=O)c1ccc(O)cc1 (centres undefined) [DALBERGIONE, 4-METHOXY-4'-HYDROXY-]"
  VALUE_REPORTED: 246.6
- COMPOUND: "COc1ccc(-c2coc3c(OC)c(OC)cc(OC)c3c2=O)cc1"
  VALUE_REPORTED: 118.2
- COMPOUND: "O=C(/C=C/c1ccccc1)c1ccc(O[C@@H]2O[C@H](CO)[C@@H](O)[C@H](O)[C@H]2O)cc1O [2',4'-DIHYDROXYCHALCONE 4'-GLUCOSIDE]"
  VALUE_REPORTED: 107.4

// moving on: another record for residual activity
Just so you know, measured residual activity for Br.COc1ccc2c(c1)[C@]13CCCC[C@@H]1[C@H](C2)N(C)CC3.O [DEXTROMETHORPHAN HYDROBROMIDE] came out at 78.21

* * *

SYSTEM: Solute carrier organic anion transporter family member 1B3 (Homo sapiens)
EXPERIMENTAL_CONDITIONS: chinese hamster, cho, 10 µM
READOUT_KIND: residual activity (%)
Give bare numbers, in %.

- MOLECULE: "Cl.c1ccc2c(c1)CN1CCCC1=N2 [DESOXYPEGANINE HYDROCHLORIDE]"
  residual activity / %: 113.9
- MOLECULE: "CC(C)=CCc1c(O)cc2oc(C)cc(=O)c2c1O"
  residual activity / %: 169
- MOLECULE: "CC1(C)C(=O)[C@@H]2O[C@@H]2[C@]2(C)[C@H]3CC[C@@]4(C)[C@H](c5ccoc5)OC(=O)[C@H]5O[C@]54[C@]3(C)C(=O)C[C@@H]12"
  residual activity / %: 74.75

Take each entry in turn and give its residual activity.
1. C#C[C@]1(O)CC[C@H]2[C@@H]3CCC4=Cc5oncc5C[C@]4(C)[C@H]3CC[C@@]21C
2. N=C(N)NCCCCNC(=N)N.O=S(=O)(O)O [ARCAINE SULFATE]
3. CC(=O)O[C@@H]1C[C@@]2(C)[C@H](c3ccoc3)C[C@H]3O[C@]32[C@]2(C)C(=O)C(O)=C3C(C)(C)C(=O)C=C[C@]3(C)C12 (stereo partly specified)
4. Cc1cc(C(C)(C)C)c(O)c(C)c1CC1=NCCN1.Cl [OXYMETAZOLINE HYDROCHLORIDE]
5. CS(=O)(=O)c1ccc([C@@H](O)[C@@H](CO)NC(=O)C(Cl)Cl)cc1
6. NS(=O)(=O)c1cc2c(cc1C(F)(F)F)NCNS2(=O)=O [HYDROFLUMETHIAZIDE]
7. ClC(Cl)=C(c1ccc(Cl)cc1)c1ccc(Cl)cc1

**A:**
[95.7, 96.72, 12.42, 104.7, 103.5, 85.97, 103.2]

Take each entry in turn and give its residual activity.
1. CC[N+](C)(C)c1cccc(O)c1.[Cl-] [EDROPHONIUM CHLORIDE]
2. CC1=CCc2c(cc3oc(C)cc(=O)c3c2O)OC1
3. CC(=O)[C@H]1CC[C@H]2[C@@H]3CC[C@H]4C[C@H](O)CC[C@]4(C)[C@H]3CC[C@]12C
4. CC1(C)[C@H](O)C[C@H](O)[C@@]2(C)[C@H]3CC[C@]4(C)[C@@H](c5ccoc5)OC(=O)[C@H]5O[C@]54[C@]3(C)[C@H](O)C[C@@H]12
5. CCOC(=O)[C@H](CCc1ccccc1)N[C@@H](C)C(=O)N1[C@H](C(=O)O)C[C@H]2CCCC[C@@H]21
6. O=S1OCC2C(CO1)C1(Cl)C(Cl)=C(Cl)C2(Cl)C1(Cl)Cl (stereo unspecified) [ENDOSULFAN]

**A:**
1: 93.08; 2: 109.4; 3: 89.68; 4: 84.19; 5: 102.1; 6: 117.8

* * *

SYSTEM: Solute carrier organic anion transporter family member 1B1 (Homo sapiens)
Sequence (Q9Y6L6 whole entry): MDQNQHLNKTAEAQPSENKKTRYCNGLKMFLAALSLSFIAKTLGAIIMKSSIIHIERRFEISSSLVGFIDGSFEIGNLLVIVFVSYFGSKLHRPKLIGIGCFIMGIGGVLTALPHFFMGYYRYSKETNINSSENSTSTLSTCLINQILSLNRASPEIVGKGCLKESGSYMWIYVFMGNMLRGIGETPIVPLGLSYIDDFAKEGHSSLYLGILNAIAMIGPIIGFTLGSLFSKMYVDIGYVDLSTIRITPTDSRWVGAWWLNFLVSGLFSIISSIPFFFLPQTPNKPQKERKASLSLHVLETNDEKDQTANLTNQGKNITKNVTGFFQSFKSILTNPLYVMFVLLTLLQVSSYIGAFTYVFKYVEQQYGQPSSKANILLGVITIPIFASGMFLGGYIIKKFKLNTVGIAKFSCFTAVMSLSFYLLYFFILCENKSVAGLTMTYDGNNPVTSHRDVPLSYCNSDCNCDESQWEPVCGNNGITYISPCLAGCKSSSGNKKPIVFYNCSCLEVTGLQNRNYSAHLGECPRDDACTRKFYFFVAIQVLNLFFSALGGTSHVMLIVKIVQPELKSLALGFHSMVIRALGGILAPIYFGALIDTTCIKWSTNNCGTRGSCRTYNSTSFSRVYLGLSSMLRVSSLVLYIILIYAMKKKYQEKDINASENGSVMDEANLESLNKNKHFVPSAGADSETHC
EXPERIMENTAL_CONDITIONS: chinese hamster, cho, 10 µM
For each of the compounds below, state its residual activity.
One number for each entry, in %.

- COMPOUND: "CCOc1ccc(NC(C)=O)cc1"
  UNITS_OF_MEASURE: "%"
  VALUE_REPORTED: 55.67
- COMPOUND: "CNC(=O)Oc1ccc2c(c1)[C@]1(C)CCN(C)[C@@H]1N2C"
  UNITS_OF_MEASURE: "%"
  VALUE_REPORTED: 78.13

Take each entry in turn and give its residual activity.
1. CC1(C)O[C@@H]2[C@@H](CO[C@@]3(COS(N)(=O)=O)OC(C)(C)O[C@@H]23)O1 [TOPIRAMATE]
2. O=c1ccc2ccccc2o1
3. COC(=O)/C(=C1/OC(=O)C(c2ccccc2)=C1O)c1ccccc1
4. NC(C(=O)O)C(O)C(=O)O (racemic) [d,l-threo-3-HYDROXYASPARTIC ACID]

**A:**
1: 93.31; 2: 116.6; 3: 57.14; 4: 70.17

Take each entry in turn and give its residual activity.
1. CCC1(C)CC(=O)NC1=O (centres undefined) [ETHOSUXIMIDE]
2. O=C(O)c1cccc(O)c1O [2,3-DIHYDROXYBENZOIC ACID]
3. CC1(C)[C@@H](O)C=C[C@]2(C)[C@H]3CC[C@@]4(C)[C@H](c5ccoc5)OC(=O)[C@H]5O[C@]54[C@]3(C)C(=O)C[C@@H]12

**A:**
137.5
94.43
10.83

* * *

SYSTEM: Solute carrier organic anion transporter family member 1B3 (Homo sapiens)
Sequence (Q9NPD5 whole entry): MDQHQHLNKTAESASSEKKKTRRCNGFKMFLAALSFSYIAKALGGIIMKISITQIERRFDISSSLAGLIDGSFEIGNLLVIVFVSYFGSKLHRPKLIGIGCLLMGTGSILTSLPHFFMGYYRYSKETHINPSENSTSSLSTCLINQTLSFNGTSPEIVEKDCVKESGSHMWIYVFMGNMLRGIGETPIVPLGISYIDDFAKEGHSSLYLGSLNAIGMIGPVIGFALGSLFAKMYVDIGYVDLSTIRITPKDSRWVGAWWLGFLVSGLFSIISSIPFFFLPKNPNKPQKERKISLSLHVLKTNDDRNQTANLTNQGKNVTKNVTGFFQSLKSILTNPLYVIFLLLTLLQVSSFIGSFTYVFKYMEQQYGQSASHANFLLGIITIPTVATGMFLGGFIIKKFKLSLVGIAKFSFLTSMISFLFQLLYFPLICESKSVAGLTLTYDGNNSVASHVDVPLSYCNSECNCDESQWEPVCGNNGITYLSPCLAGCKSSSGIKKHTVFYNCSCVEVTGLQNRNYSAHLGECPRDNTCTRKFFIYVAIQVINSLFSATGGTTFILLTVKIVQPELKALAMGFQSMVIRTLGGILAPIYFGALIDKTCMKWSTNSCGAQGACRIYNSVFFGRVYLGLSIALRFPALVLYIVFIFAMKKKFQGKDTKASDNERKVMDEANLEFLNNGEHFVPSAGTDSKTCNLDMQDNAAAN
EXPERIMENTAL_CONDITIONS: chinese hamster, cho, 10 µM
For each of the molecules below, state its residual activity.
Give bare numbers, in %.

Take each entry in turn and give its residual activity.
1. COc1ccc(-c2cc(C(F)F)nn2-c2ccc(S(N)(=O)=O)cc2)cc1F [DERACOXIB]
2. Nc1ncn([C@@H]2O[C@H](CO)[C@@H](O)[C@H]2O)c(=O)n1 [AZACITIDINE]
3. CCc1ccc(CCOc2ccc(CC3SC(=O)NC3=O)cc2)nc1.Cl (stereo not drawn) [PIOGLITAZONE HYDROCHLORIDE]
4. COc1cc(O)c2c(=O)c(-c3ccccc3)coc2c1 [5-HYDROXY-7-METHOXYISOFLAVONE]
5. O=[N+]([O-])c1cc(O)c(O)c([N+](=O)[O-])c1 [3,5-DINITROCATECHOL (OR-486)]
6. CCCCC(=O)Oc1ccccc1C(=O)O [VALERYL SALYCILATE]

**A:**
98.95
96.87
88.74
104.3
75.38
92.91

Take each entry in turn and give its residual activity.
1. O=C(O)/C=C\C(=O)O.c1ccc2nc(N3CCNCC3)ccc2c1 [QUIPAZINE MALEATE]
2. CC(=O)Oc1ccc2c(c1C(C)C)CC[C@H]1C(C)(C)CCC[C@]21C
3. COc1ccc(C(=O)/C=C/c2ccccc2)cc1 [4'-METHOXYCHALCONE]

**A:**
1: 102.9; 2: 105.1; 3: 93.51

Take each entry in turn and give its residual activity.
1. C=C(CC)C(=O)c1ccc(OCC(=O)O)c(Cl)c1Cl [ETHACRYNIC ACID]
2. C[C@@H]1CC[C@@]2(OC1)O[C@H]1C[C@H]3[C@@H]4CC=C5C[C@@H](O)CC[C@]5(C)[C@H]4CC[C@]3(C)[C@H]1[C@@H]2C [DISOGENIN]
3. COc1cc2c(cc1O)C(Cc1ccc(O)cc1)N(C)CC2 (stereo not drawn) [METHYL COCLAURINE]
4. COc1ccc(/C=C/c2cc(O)cc(O)c2)cc1 [RESVERATROL 4'-METHYL ETHER]
5. Cc1ccc(/N=C/N(C)/C=N/c2ccc(C)cc2C)c(C)c1 [AMITRAZ]
6. NC(=O)NC1NC(=O)NC1=O (stereo not drawn) [ALLANTOIN]
7. COc1c(CC=C(C)C)c2c(c3oc(=O)c(-c4ccc(O)cc4)c(O)c13)C=CC(C)(C)O2 [SCANDENIN]
8. CC(=O)CCCCn1c(=O)c2c(ncn2C)n(C)c1=O [PENTOXIFYLLINE]

**A:**
1: 111.8; 2: 85.35; 3: 94.46; 4: 135; 5: 87.86; 6: 86.17; 7: 9.001; 8: 79.59

Just so you know, measured residual activity for COc1cc(O)c2c(=O)c(O)c(-c3ccc(O)c(O)c3)oc2c1 [RHAMNETIN] came out at 99.02
